# Read-out: Transforming Growth Factor (TGFB1), TGFB1 (gene 7040)
# METHOD_NOTES: LTEA_HepaRG_TGFB1: Life Technologies and Expression Analysis (LTEA) Assay for Transforming Growth Factor (TGFB1) Transporter using HepaRG (AID 2283533)
# CONDITION_CONTEXT: mRNA level, 48 h; actives raise or lower the signal
Calls of active or inactive are those of the source. The calls were made as follows: active = hit-call score of the fitted dose curve at least 0.9, where 1 is the maximum; inactive = score below 0.9.
Possible outcomes: active, inactive

MOLECULE	CLASSIFICATION
CCCCC(C#N)(Cn1cncn1)c1ccc(Cl)cc1 (stereo unspecified)	active
Clc1nc(Cl)nc(Nc2ccccc2Cl)n1	inactive
CCCCC(O)(Cn1cncn1)c1ccc(Cl)cc1Cl (stereo unspecified)	active
CC(C)C1(C)N=C(c2ncccc2C(=O)O)NC1=O (stereo unspecified)	inactive
CN=C=S	inactive
CN/C(=N\[N+](=O)[O-])NCc1cnc(Cl)s1	inactive

----------
# ASSAY_TARGET: human Dopamine Transporter (DAT), SLC6A3 (gene 6531)
# METHOD_NOTES: NVS_TR_hDAT: NovaScreen (NVS) Transporter Assay for human Dopamine Transporter (DAT) (AID 2283374);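 also: activity means loss of bound radioligand signal relative to DMSO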
Results filed as inconclusive are left out. Activity calls are given as the source filed them. The calls were made as follows: active = hit-call score of the fitted dose curve at least 0.9, where 1 is the maximum; inconclusive = response in the unintended direction; inactive = score below 0.9.
MEASURED_PROPERTY: AC50

COMPOUND	ASSAY_TARGET	ENDPOINT_RESULT
CC(C)(C)C(=O)C(Oc1ccc(Cl)cc1)n1cncn1 (stereo not drawn)	human Dopamine Transporter (DAT), SLC6A3 (gene 6531)	0.238 µM (active)
CC1(C)C(C=C(Cl)Cl)C1C(=O)OC(C#N)c1cccc(Oc2ccccc2)c1 (stereo not drawn)	human Dopamine Transporter (DAT), SLC6A3 (gene 6531)	6.48 µM (active)
CC1(C)CON(Cc2ccccc2Cl)C1=O	human Dopamine Transporter (DAT), SLC6A3 (gene 6531)	6.47 µM (active)
CCN(CC)C(=O)C(C)Oc1cccc2ccccc12 (stereo not drawn)	human Dopamine Transporter (DAT), SLC6A3 (gene 6531)	10.4 µM (active)
COP(=S)(OC)Oc1ccc([N+](=O)[O-])c(C)c1	human Dopamine Transporter (DAT), SLC6A3 (gene 6531)	4.96 µM (active)
CCOC(=O)C(C)OC(=O)c1cc(Oc2ccc(C(F)(F)F)cc2Cl)ccc1[N+](=O)[O-] (stereo not drawn)	human Dopamine Transporter (DAT), SLC6A3 (gene 6531)	7.94 µM (active)
CCCCC(C#N)(Cn1cncn1)c1ccc(Cl)cc1 (stereo not drawn)	human Dopamine Transporter (DAT), SLC6A3 (gene 6531)	7.18 µM (active)

----------
# Read-out: Transforming Growth Factor (TGFA), TGFA (gene 7039)
# METHOD_NOTES: LTEA_HepaRG_TGFA: Life Technologies and Expression Analysis (LTEA) Assay for Transforming Growth Factor (TGFA) using HepaRG (AID 2283532)
# CONDITION_CONTEXT: mRNA level, 48 h; actives raise or lower the signal
Calls of active or inactive are those of the source. Rule for the calls: active = hit-call score of the fitted dose curve at least 0.9, where 1 is the maximum; inactive = score below 0.9.
Possible outcomes: active, inactive

COMPOUND	CLASSIFICATION
COCC(C)N(C(=O)CCl)c1c(C)csc1C (configuration not stated)	inactive
N#Cc1c[nH]cc1-c1cccc2c1OC(F)(F)O2	inactive
Clc1nc(Cl)nc(Nc2ccccc2Cl)n1	inactive
COP(=O)(OC)O/C(C)=C/C(=O)N(C)C	inactive
Cc1c(COC(=O)[C@@H]2[C@H](/C=C(\Cl)C(F)(F)F)C2(C)C)cccc1-c1ccccc1	inactive
N#CN=C1SCCN1Cc1ccc(Cl)nc1	inactive
CCCN(CC)CC1COC2(CCC(C(C)(C)C)CC2)O1 (configuration not stated)	inactive
CC(C)(C)C(=O)C(Oc1ccc(Cl)cc1)n1cncn1 (configuration not stated)	inactive
CNC(=O)Oc1cccc2ccccc12	inactive
Nc1cnn(-c2ccccc2)c(=O)c1Cl	inactive
CC1(C)C(C(=O)OC(C#N)c2cccc(Oc3ccccc3)c2)C1(C)C (configuration not stated)	inactive
CCCCC(C#N)(Cn1cncn1)c1ccc(Cl)cc1 (configuration not stated)	inactive
COCc1cnc(C2=NC(C)(C(C)C)C(=O)N2)c(C(=O)O)c1 (configuration not stated)	inactive
CCOc1nc(C(Cl)(Cl)Cl)ns1	active
O=P(O)(O)CCCl	inactive
CN/C(=N\[N+](=O)[O-])NCc1cnc(Cl)s1	inactive
CN=C=S	inactive
CS(=O)(=O)c1cc(C(F)(F)F)ccc1C(=O)c1cnoc1C1CC1	inactive
Cc1cnc(C2=NC(C)(C(C)C)C(=O)N2)c(C(=O)O)c1 (configuration not stated)	inactive
CCSC(=O)N1CCCCCC1	inactive
COCC(=O)N(c1c(C)cccc1C)C(C)C(=O)OC (configuration not stated)	inactive
CCOP(=S)(OCC)Oc1nc(Cl)n(C(C)C)n1	inactive
CC1(C)CON(Cc2ccccc2Cl)C1=O	inactive
CCOC(=O)C(C)OC(=O)c1cc(Oc2ccc(C(F)(F)F)cc2Cl)ccc1[N+](=O)[O-] (configuration not stated)	inactive
O=C1C2CC=CCC2C(=O)N1SC(Cl)(Cl)Cl (configuration not stated)	inactive
CC(C)N1C(=O)N(c2ccccc2)CSC1=NC(C)(C)C	active
Cc1cc(C)nc(Nc2ccccc2)n1	inactive
